// provenance: patent US20230106506A1

# method_notes: Kinetic turbidimetric aqueous solubility
# Assay type: physicochemical
# experimental_context: aqueous buffer, kinetic from dmso stock; PBS buffer, final DMSO 2%, absorbance 620 nm; read-out: Kinetic Turbidimetric Aqueous Solubility at room temperature for 5 min
# Procedure: Kinetic Turbidimetric Aqueous Solubility at room temperature for 5 min. […] Data was analyzed by fitting a four parameter sigmoidal function to the measured and normalized absorbances and AUC calculation providing access to Log S (decadic logarithm of the solubility).
Below, each entry is listed alongside its reported solubility at 5 min.

structure	solubility at 5 min
N#Cc1cccc(-c2ncc(CNc3cc(-c4cn[nH]c4)nc(C(F)(F)F)c3)cn2)c1	> 25 µM
Fc1ccccc1Oc1ccc(-n2cc(CNc3cc(-c4cn[nH]c4)nc(C(F)(F)F)c3)nn2)cc1	> 10 µM

Looking for the measured solubility at 5 min of CC(C)Oc1ccc(-c2ccc(CNc3cc(-c4cn[nH]c4)nc(C(F)(F)F)c3)nn2)cc1 , can you help?
> 25 µM

Looking for the measured solubility at 5 min of CC(C)Oc1ccc(-c2ncc(CNc3cc(-n4cncn4)nc(C(F)(F)F)c3)cn2)cc1Cl , can you help?
> 10 µM

====

Below, each entry is listed alongside its reported solubility at 5 min.
# method_notes: Kinetic turbidimetric aqueous solubility
# Type: physicochemical
# experimental_context: aqueous buffer, kinetic from dmso stock; PBS buffer, final DMSO 2%, absorbance 620 nm; read-out: Kinetic Turbidimetric Aqueous Solubility at room temperature for 5 min

Would you please look over these solved cases?
structure	solubility at 5 min
CC(C)Oc1ccc(-c2ncc(CNc3cc(-c4cnn(C)c4)nc(C(F)(F)F)c3)s2)cc1	> 10 µM
CC(C)Oc1ccc(-c2ncc(CNc3cc(-c4cnc[nH]4)nc(C(F)(F)F)c3)cn2)cc1	> 10 µM
CC(C)Oc1ccc(-n2cc(CNc3cc(-n4cncn4)nc(C(F)(F)F)c3)nn2)cc1	> 10 µM
CC(C)Oc1ccc(-n2cc(CNc3cc(Cl)nc(-c4cn[nH]c4)c3)nn2)cc1Cl	> 25 µM
FC(F)(F)c1cc(NCc2cnc(-c3ccc(Oc4ccc(Cl)cc4)cc3)nc2)cc(-c2cn[nH]c2)n1	> 10 µM
FC(F)(F)c1cc(SCc2nc3cc(Oc4ccccc4)ccc3[nH]2)cc(-c2cn[nH]c2)n1	> 10 µM

Looking for the measured solubility at 5 min of CC(C)Oc1ccc(-c2ccc(CNc3cc(-c4cn[nH]c4)nc(C(F)(F)F)c3)cn2)cc1 , can you help?
> 25 µM

Looking for the measured solubility at 5 min of CC(C)Oc1ccc(-c2ccc(CNc3cc(-c4cn[nH]c4)nc(C(F)(F)F)c3)cn2)cc1Cl , can you help?
> 25 µM

Looking for the measured solubility at 5 min of CC(C)Oc1ccc(-c2ncc(CNc3cc(-c4cn[nH]c4)nc(C(F)(F)F)c3)cn2)cc1Cl , can you help?
> 25 µM

Looking for the measured solubility at 5 min of FC(F)(F)c1cc(SCc2nc3cc(Oc4ccccc4)ccc3[nH]2)cc(-n2cncn2)n1 , can you help?
> 10 µM

Looking for the measured solubility at 5 min of CC(C)Oc1ccc(-c2ccc(CNc3cc(-c4cn[nH]c4)nc(C(F)(F)F)c3)nc2)cc1 , can you help?
> 10 µM

Looking for the measured solubility at 5 min of Fc1ccccc1Oc1ccc(-c2ncc(CNc3cc(-c4cn[nH]c4)nc(C(F)(F)F)c3)cn2)cc1 , can you help?
> 50 µM
